Entries and their measured melting point follow.
assayEndpoint: melting point

[[record]]
compound = "O=C(CCc1ccc(OC(C(=O)O)c2ccccc2)c(Cl)c1Cl)c1ccc(-c2ccc(C(F)(F)F)cc2)s1 (centres unmarked)"
assayendpoint = "melting point"
observedresult = "189 to 191 °C"

[[record]]
compound = "CC(C)(Oc1ccc(CCC(=O)c2ccc(-c3ccc(OC(F)(F)F)cc3)s2)c(Cl)c1Cl)C(=O)O"
assayendpoint = "melting point"
observedresult = "135 to 136 °C"

[[record]]
compound = "CCC(Oc1ccc(CCC(=O)c2ccc(-c3ccc(C(F)(F)F)cc3)s2)cc1)C(=O)O (centres unmarked)"
assayendpoint = "melting point"
observedresult = "116 to 117 °C"

[[record]]
compound = "O=C(O)COc1ccc(CCC(=O)c2ccc(-c3ccc(C(F)(F)F)cc3)s2)cc1Br"
assayendpoint = "melting point"
observedresult = "180 to 182 °C"

[[record]]
compound = "O=C(O)COc1ccc(CCC(=O)c2ccc(-c3ccc(C(F)(F)F)cc3)s2)cc1F"
assayendpoint = "melting point"
observedresult = "170 to 171 °C"

[[record]]
compound = "O=C(O)COc1ccc(CCC(=O)c2ccc(-c3ccc(C(F)(F)F)cc3)s2)cc1"
assayendpoint = "melting point"
observedresult = "182 to 183 °C"

[[record]]
compound = "COC(CCc1ccc(OC(C)(C)C(=O)O)c(Cl)c1Cl)c1ccc(-c2ccc(C(F)(F)F)cc2)s1 (centres unmarked)"
assayendpoint = "melting point"
observedresult = "46 to 48 °C"

[[record]]
compound = "CC(C)(Oc1ccc(CCC(=O)c2ccc(-c3ccccc3)s2)c(Cl)c1Cl)C(=O)O"
assayendpoint = "melting point"
observedresult = "179 to 180 °C"

[[record]]
compound = "CC(C)(Oc1ccc(CCC(=O)c2cc(-c3ccc(C(F)(F)F)cc3)cs2)c(Cl)c1Cl)C(=O)O"
assayendpoint = "melting point"
observedresult = "99 to 101 °C"

[[record]]
compound = "CC(C)(CCCOc1ccc(CCC(=O)c2ccc(-c3ccc(C(F)(F)F)cc3)s2)c(Cl)c1Cl)C(=O)O"
assayendpoint = "melting point"
observedresult = "167 to 169 °C"

[[record]]
compound = "Cc1cc(CCC(=O)c2ccc(-c3ccc(C(F)(F)F)cc3)s2)cc(C)c1OC(C)(C)C(=O)O"
assayendpoint = "melting point"
observedresult = "157 to 158 °C"

[[record]]
compound = "CC(C)(Oc1ccc(CCC(=O)c2ccc(-c3ccc(C(F)(F)F)cc3)s2)c(Cl)c1Cl)C(=O)O"
assayendpoint = "melting point"
observedresult = "153 to 154 °C"

[[record]]
compound = "CC(C)(Oc1ccc(CCC(=O)c2ccc(-c3ccc(C(F)(F)F)cc3)s2)c(Cl)c1)C(=O)O"
assayendpoint = "melting point"
observedresult = "104 to 106 °C"

[[record]]
compound = "CC(C)(Oc1ccc(CCC(=O)c2ccc(-c3ccc(C(F)(F)F)cc3)s2)cc1Br)C(=O)O"
assayendpoint = "melting point"
observedresult = "102 to 104 °C"

[[record]]
compound = "CC(C)(Oc1ccc(CCC(OCc2ccccc2)c2ccc(-c3ccc(C(F)(F)F)cc3)s2)c(Cl)c1Cl)C(=O)O (centres unmarked)"
assayendpoint = "melting point"
observedresult = "46 to 48 °C"

[[record]]
compound = "CC(C)(Oc1ccc(CCC(=NO)c2ccc(-c3ccc(C(F)(F)F)cc3)s2)c(Cl)c1Cl)C(=O)O (mixture of isomers)"
assayendpoint = "melting point"
observedresult = "135 to 136 °C"

[[record]]
compound = "CCC(Oc1ccc(CCC(=O)c2ccc(-c3ccc(C(F)(F)F)cc3)s2)cc1Br)C(=O)O (centres unmarked)"
assayendpoint = "melting point"
observedresult = "126 to 128 °C"

[[record]]
compound = "CC(C)(Oc1ccc(CCC(=O)c2ccc(-c3ccc(C(F)(F)F)cc3)s2)cc1F)C(=O)O"
assayendpoint = "melting point"
observedresult = "150 to 151 °C"

[[record]]
compound = "CCC(Oc1ccc(CCC(=O)c2ccc(-c3ccc(C(F)(F)F)cc3)s2)c(Cl)c1Cl)C(=O)O (centres unmarked)"
assayendpoint = "melting point"
observedresult = "169 to 171 °C"

[[record]]
compound = "CC(C)(Oc1ccc(CCC(=O)c2ccc(-c3ccc(C(F)(F)F)cc3)s2)cc1Cl)C(=O)O"
assayendpoint = "melting point"
observedresult = "136 to 137 °C"

[[record]]
compound = "CSc1ccc(-c2ccc(C(=O)CCc3ccc(OC(C)(C)C(=O)O)c(Cl)c3Cl)s2)cc1"
assayendpoint = "melting point"
observedresult = "171 to 172 °C"

[[record]]
compound = "CC(C)(Oc1ccc(CCC(O)c2ccc(-c3ccc(C(F)(F)F)cc3)s2)c(Cl)c1Cl)C(=O)O (centres unmarked)"
assayendpoint = "melting point"
observedresult = "54 to 56 °C"

[[record]]
compound = "O=C(O)COc1ccc(CCC(=O)c2ccc(-c3ccc(C(F)(F)F)cc3)s2)c(Cl)c1Cl"
assayendpoint = "melting point"
observedresult = "217 to 219 °C"

[[record]]
compound = "Cc1cc(CCC(=O)c2ccc(-c3ccc(C(F)(F)F)cc3)s2)ccc1OC(C)(C)C(=O)O"
assayendpoint = "melting point"
observedresult = "130 to 131 °C"

[[record]]
compound = "CC(C)(Oc1ccc(CCC(=O)c2ccc(-c3ccc(C(F)(F)F)cc3)s2)cc1)C(=O)O"
assayendpoint = "melting point"
observedresult = "154 to 155 °C"

[[record]]
compound = "CC(C)(Oc1ccc(CCC(OCc2ccccc2)c2cc(-c3ccc(C(F)(F)F)cc3)cs2)c(Cl)c1Cl)C(=O)O (centres unmarked)"
assayendpoint = "melting point"
observedresult = "58 to 59 °C"

